Measured YAP1 (% UTC) by item
System: Yap1 mRNA
Assay: Antisense inhibition of human Yap1 in A-431 cells by cEt gapmers, single dose (Example 1, RTS4814)
Format: cell-based
Settings: A-431 cells, 5,000 cells per well, free uptake, 2,000 nM modified oligonucleotide, approx. 48 hours, RTS4814, normalized to RIBOGREEN; Table 3
Strand notation (5' to 3'): a small letter for the sugar, then the base; units joined by * are phosphorothioate-linked, units joined directly phosphodiester-linked; [ ] holds rarer units or linkages, { } end groups; capitals alone tell only the bases. k = constrained ethyl (cEt); [5mC] = 5-methylcytosine; d = 2'-deoxy (DNA)
Measure name: YAP1 (% UTC)

>>> meas_value("715558 (k[5mC]*kA*kG*dG*dA*dA*dG*dT*dT*dA*dT*dT*d[5mC]*kA*kG*k[5mC]; antisense) [Compound 715558]")
"37 % UTC"
>>> meas_value("715402 (kA*kG*kG*dA*dG*dT*d[5mC]*dG*dG*dG*d[5mC]*dA*dG*k[5mC]*kT*kT; antisense) [Compound 715402]")
"59 % UTC"
>>> meas_value("715501 (antisense kA*kA*kA*dA*dG*d[5mC]*d[5mC]*dT*dT*dA*dG*dA*dG*kT*k[5mC]*kA) [Compound 715501]")
"28 % UTC"
>>> meas_value("715414 (kA*kA*k[5mC]*dA*dT*dG*d[5mC]*dT*dG*dT*dG*dG*dA*kG*kT*k[5mC]; antisense) [Compound 715414]")
"31 % UTC"
>>> meas_value("715465 (antisense kG*kT*k[5mC]*d[5mC]*dA*d[5mC]*dA*dT*dT*dT*dG*dT*d[5mC]*k[5mC]*k[5mC]*kA) [Compound 715465]")
"91 % UTC"
